B1: HDV Ribozyme (parent)
chain: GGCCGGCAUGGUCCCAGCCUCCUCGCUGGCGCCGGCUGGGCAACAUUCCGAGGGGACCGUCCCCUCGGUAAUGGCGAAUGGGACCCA

- Variants of: B1
- Test: self-cleavage, relative activity (ratio to wild type); higher = more cleavage; co-transcriptional
Overview of recorded self-cleavage for various variants
Assay Readout: self-cleavage

Mutation Spec: U20C C24A
Measured Number: 0

Mutation Spec: C24U C85G
Measured Number: 0.629

Mutation Spec: U60G C63A
Measured Number: 0.831

Mutation Spec: U37G C84U
Measured Number: 0.111

Mutation Spec: G10C A70C
Measured Number: 0.923
